Listing of recorded folding stability dG by entry.
B1: 5KPH (parent)
chain: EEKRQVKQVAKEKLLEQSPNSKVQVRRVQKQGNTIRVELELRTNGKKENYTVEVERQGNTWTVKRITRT

Variants of: B1
Assay: folding stability dG (cDNA display proteolysis); higher = more stable
Settings: PBS, room temperature

As a guide, the following entries are already answered.
EEKRQVKQVAKEKLLEQSPNSKVQVRRVQKQGNTIRVELELRTNGKKENYTVEVERIGNTWTVKRITRT; 4.25 kcal/mol
EEKRQVKQVAKEKLLEQSPNSKVQVRRVQKQGNTIRVELELRTNGKKENYTVEVEDQGNTWTVKRITRT; 2.42 kcal/mol
EEKRQVKQVAKEKLLEQSPNSKVQVRRVQKQGNTIRVELEERTNGKKENYTVEVERQGNTWTVKRITRT; 1.66 kcal/mol
EEKRQVKQVAKEKLLEQSPNSKVQVRRVQKQGNTIRVELELRTNGKKENYTVEQERQGNTWTVKRITRT; 0.909 kcal/mol
EEKRQVKQVAKEKLLEQSPNSKVQVRRVQKQGNTIRVELELRTNGKKEWYTVEVERQGNTWTVKRITRT; 4.2 kcal/mol

Kindly note the recorded folding stability dG for EEKRQVKQVAKEKLLEQSPNSKVQVRRVQKQGNTIRVELELRTNGKKENYTVEVERTGNTWTVKRITRT , which is 4.03 kcal/mol

folding stability dG reading for EEKRQVKQVAKEKLLEQSPNSKVQVRRVQKQGNTIRVELELRTNGKKENYTVEVGRQGNTWTVKRITRT : 3.19 kcal/mol

Value of folding stability dG reported for the variant EEKRQVKQVAKEKLLEQSPNSKVQVRRVQKQGNTIRVELELRTNGKKENYTVEVERQGNTWTVIRITRT is 4.47 kcal/mol

Lab note: EEKRQVKGVAKEKLLEQSPNSKVQVRRVQKQGNTIRVELELRTNGKKENYTVEVERQGNTWTVKRITRT gave folding stability dG of 3.2 kcal/mol

// EEKRQVKQVAKEKLLEQSPNSKVQVRRVQKQGNTIRVELELRTNGKKENYTVEVERQGNTWTVKRETRT : folding stability dG value = 1.1 kcal/mol

Recorded folding stability dG (variant EEKRQVKQVAKEKLLEQAPNSKVQVRRVQKQGNTIRVELELRTNGKKENYTVEVERQGNTWTVKRITRT ): 3.8 kcal/mol

EEKRQVKQVAKEKLLEQSPNSKVQVRRVQKQGNTIRVELELRTNGKKENYTVEVEMQGNTWTVKRITRT has a reported folding stability dG of 3.61 kcal/mol

Documented folding stability dG of EEKRQVKQVAKEKLLEQSPNSKVQVRRVQKQGNTIRVELELRTNGKKENYTVEVECQGNTWTVKRITRT : 3.59 kcal/mol

In plain terms, EEKRQVKQVAKEKLLEQSPNSKVQVRRVQKQGNTIRVELELRTNGKKENYTVEVERQGNTWTVGRITRT has a documented folding stability dG of 3.25 kcal/mol

Looking up EEKRQVKQVAKEKLLEQSPNSKMQVRRVQKQGNTIRVELELRTNGKKENYTVEVERQGNTWTVKRITRT , I found its folding stability dG recorded as 3.08 kcal/mol

folding stability dG in this record for EEKRQVKQVAKEKLLEQSPNSKVQVRRVQKQGNTIRVELELRTNGKKENYTVEVERQGNTWTKKRITRT : 0.466 kcal/mol

Reported folding stability dG ( EEKRQVKQVAKEKLLEQSPNSKVQVRRVQKQGNTIRVELELRTNGKKEMYTVEVERQGNTWTVKRITRT ) = 4.18 kcal/mol

Data point: EEKRQVKQVAKEKLLEQSPNSKVQVRRVQKQGNTIRVELELRTNGKKENYTVEVERQGNTWTYKRITRT ; folding stability dG = 2.01 kcal/mol

In plain terms, EEKRQVKQVAKEKLLEQSPNSKVQVRRVTKQGNTIRVELELRTNGKKENYTVEVERQGNTWTVKRITRT has a documented folding stability dG of 4.33 kcal/mol

Record EEKRQVKQVAKEKLLEQSPNSKVQVRRVSKQGNTIRVELELRTNGKKENYTVEVERQGNTWTVKRITRT , field folding stability dG: 4.22 kcal/mol

Data point: EEKRQVKQVAKEKLLEQSPNSKVQVRRVQKHGNTIRVELELRTNGKKENYTVEVERQGNTWTVKRITRT ; folding stability dG = 4.3 kcal/mol

Noted for EEKRQVKQVAKEKLLEQSFNSKVQVRRVQKQGNTIRVELELRTNGKKENYTVEVERQGNTWTVKRITRT : its folding stability dG reads 2.54 kcal/mol

response.value for EEKRQVKQVAKEKLLEQSENSKVQVRRVQKQGNTIRVELELRTNGKKENYTVEVERQGNTWTVKRITRT (field: folding stability dG) = 2.5 kcal/mol

get_value(item= EEKRQVKQVAKEKLLEQSLNSKVQVRRVQKQGNTIRVELELRTNGKKENYTVEVERQGNTWTVKRITRT , readout=folding stability dG) returns 2.64 kcal/mol

Reported folding stability dG ( EEKRQVKQVAKEKLLEQSPNSKVQVRRVQKQVNTIRVELELRTNGKKENYTVEVERQGNTWTVKRITRT ) = 2.74 kcal/mol

So for EEKRQVKQVAKEKLLEQSPNIKVQVRRVQKQGNTIRVELELRTNGKKENYTVEVERQGNTWTVKRITRT , the logged folding stability dG turned out to be 2.46 kcal/mol

// folding stability dG lookup, variant = EEKRQVKQVAKEKLLEQSPNSKVQVRRVQKQGWTIRVELELRTNGKKENYTVEVERQGNTWTVKRITRT , result: 3.36 kcal/mol
